# Tested on: Escherichia coli TOP10;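 also: peptides expressed intracellularly from a pBAD plasmid library in pooled LB shake-flask culture, induced with 0.3% L-arabinose, DNA abundance read by NGS, three biological replicates, DESeq2 with apeglm shrinkage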
# experimental_protocol: shrunken log2 fold change of peptide-encoding DNA abundance (4.5 h post-induction vs induction); higher = less antimicrobial activity (less host growth inhibition)
# protocol_conditions: time post-induction: 4.5 h; library: site-saturation at positions 5, 18, 19, 20
Decide using shrunken log2 fold change: a value greater than or equal to -0.1 is Condition met, a smaller one is Condition not met.

# example entries with known answers
- item_sequence: "RRIRSRPPRLPRPRPRPRLWPRP"
  category: "Condition met"
- item_sequence: "RRIRIRPPRLPRPRPRPASKPRP"
  category: "Condition not met"
- item_sequence: "RRIRQRPPRLPRPRPRPEYIPRP"
  category: "Condition met"
- item_sequence: "RRIRMRPPRLPRPRPRPYSNPRP"
  category: "Condition not met"
- item_sequence: "RRIRIRPPRLPRPRPRPVPRPRP"
  category: "Condition met"
- item_sequence: "RRIRCRPPRLPRPRPRPISRPRP"
  category: "Condition not met"
- item_sequence: "RRIRSRPPRLPRPRPRPALTPRP"
  category: "Condition met"
- item_sequence: "RRIRRRPPRLPRPRPRPDQIPRP"
  category: "Condition not met"

Query :: Quick check, shrunken log2 fold change >= -0.1? RRIRQRPPRLPRPRPRPTSQPRP
Result :: Condition met

Query :: Also check RRIRDRPPRLPRPRPRPSFLPRP
Result :: Condition not met

Query :: Also check RRIRSRPPRLPRPRPRPDKGPRP
Result :: Condition not met

Query :: Also check RRIRDRPPRLPRPRPRPVQQPRP
Result :: Condition met

Query :: Also check RRIRTRPPRLPRPRPRPNETPRP
Result :: Condition met

Query :: Also check RRIRMRPPRLPRPRPRPRVAPRP
Result :: Condition met

Query :: Also check RRIRMRPPRLPRPRPRPTAIPRP
Result :: Condition met
